biological target: T1, human MSLN-R3-his protein (human, UniProt Q13421 487-598); assay: ELISA on coated MSLN-R3; antibody 0.01 nM
T1 construct: Region 3 of human mesothelin, made in HEK293E cells, His-tagged; also called human MSLN-R3 protein; hMSLN-R3-his; not shown: His tag
T1 sequence (Q13421 495-606): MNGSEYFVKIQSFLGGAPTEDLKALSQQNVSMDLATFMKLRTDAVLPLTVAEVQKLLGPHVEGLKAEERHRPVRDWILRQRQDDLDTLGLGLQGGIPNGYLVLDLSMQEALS
So I've got a bunch of binders here, and I need their OD450 values.
Answers are plain numbers, in OD450.

Illustrative cases are given below, each with its answer.
| BINDER | REPORTED_ENDPOINT | NUMBER |
| --- | --- | --- |
| S009-F8-27.1 (antibody, human IgG1, kappa, V domains shown) VH: EVQLVESGGGLVKPGGSLKLSCAASGFTFSSYAMSWVRQTPEKRLEWVATISDGGNYTYYPDNVKGRFTISRDNAKNNLYLQMSHLKSEDTAMYYCAGDRGYPYAMDSWGQGTSVTVSS VL: NIMMTQSPSSLAVSAGEKVTMSCKSSQSVLYSSNQKNYLAWYQQKPGQSPKLLIYWASTRESGVPDRFTGSGSGTDFTLTISNVHAEDLAVYYCHQYLSSLTFGAGTKLELKR | OD450 | 0.04 |
| S009-F8-8.22 (antibody, human IgG1, kappa, V domains shown) VH: EVQLQQSGPELVKPGASVKMSCKASGYTFTDYIIHWVKQSHGKSLEWIAYIFPNNGGTGYNQKFRGKATLTVNKSSSTAYMELRSLTSEDSAVYYCARWRLRQYFDVWGTGTTVTVSS VL: DIVMTQSQKFMSTIVGDRVSITCKASQNVGTAVAWYQQKPGQSPKLLIYSASNRYTGVPDRFTGSGSGTDFTLTISNMQSEDLADYFCQQYSSYPLTFGGGTKLEIKR | OD450 | 0.04 |
| S009-F8-29.1 (antibody, human IgG1, kappa, V domains shown) VH: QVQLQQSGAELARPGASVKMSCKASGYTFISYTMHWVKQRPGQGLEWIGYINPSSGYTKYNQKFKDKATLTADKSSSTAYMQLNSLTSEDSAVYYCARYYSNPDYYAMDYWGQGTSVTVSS VL: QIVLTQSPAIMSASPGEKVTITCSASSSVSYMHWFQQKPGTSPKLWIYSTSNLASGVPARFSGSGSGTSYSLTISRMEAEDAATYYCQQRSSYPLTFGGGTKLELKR | OD450 | 0.04 |
| S009-F8-5.15 (antibody, human IgG1, kappa, V domains shown) VH: QVQLQQPGTELVKPGASVKLSCKASGYTFTSYWMHWVKQRPGQGLEWIGHSNPSNGGTNYNEKFKSKATLTVDKSSSTAYMQLSSLTSEDSAVYYCARWVRGSNYEYFDVWGTGTTVTVSS VL: DIVMTQSQKFMSTTVGDRVSIICKASQNVGSAVAWCQQKPGQSPKLLIYSASNRYTGVPDRFTGSGSGTDFTLTISNMQSEDLADYFCQQYSSYPLTFAGGTKLEIKR | OD450 | 0.04 |

Query: Consider the binder S009-F8-19.21 (antibody, human IgG1, kappa, V domains shown) VH: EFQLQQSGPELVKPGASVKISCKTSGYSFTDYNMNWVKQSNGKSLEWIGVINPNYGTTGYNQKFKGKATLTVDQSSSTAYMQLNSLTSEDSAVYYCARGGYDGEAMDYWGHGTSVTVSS VL: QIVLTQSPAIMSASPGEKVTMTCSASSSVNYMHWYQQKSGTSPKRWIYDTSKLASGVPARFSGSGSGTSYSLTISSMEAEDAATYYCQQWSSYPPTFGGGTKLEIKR . State its measured OD450.
Response: 0.04
